Item-by-item account of Enzyme Activity Endpoint Assay (purified): scIgG
# target.system: pooled human IgG
API: value field is a number in ng/µL; no unit string.

protein: PRT-69 (protein) MANQEIRYSEVTPYHVTSVWTKGVTPPANFTQGEDVFHAPYVANQGWYDITKTFNGKDDLLCGAATAGNMLHWWFDQNKDQIKRYLEEHPEKQKINFNGEQMFDVKEAIDTKNDQLDSKLFEYFKEKAFPYLSTKHLGVFPDHVIDMFINGYRLSLTNHGPTPVKEGSKDPRGGIFDAVFTRGDQSKLLTSRHDFKEKNLKEISDLIKKELTEGKALGLSHTYANVRINHVINLWGADFDSNGNLKAIYVTDSDSNASIGMKKYFVGVNSAGKVAISAKEIKEDNIGAQVLGLFTLSTGQDSWNQTN
unit.of.measure: ng/µL
numeric.readout: 14

Continue with the protein presented below.
IN: Look up and report measured Enzyme Activity Endpoint Assay (purified): scIgG for this entry: PRT-165 (protein) MANQEIRYSEVTPYHVTSVWTKGVTPPANFTQGEDVFHAPYVANQGWYDITKTFNGGDDLLCGAATAGNMLHWWFDQNKDQIKRYLEEHPEKQKINFNGEQMFDVKEAIDTKNSQTNSELFNYFKEKAFPYLSTKHLGVFPDHVIDMFINGYRLSLTNHGPTPVKEGSKDPRGGIFDAVFTRGDQSKLLTSRHDFKEKNLKEISDLIKKELTEGKALGLSHTYANVRINHVINLWGADFDSNGNLKAIYVTDSDSNASIGMKKYFVGVNSAGKVAISAKEIKEDNIGAQVLGLFTLSTGQDSWNQTN
OUT: 0
